Biological target: 5-HT1A receptors (Rattus norvegicus, UniProt P19327)
Sequence (P19327 whole entry): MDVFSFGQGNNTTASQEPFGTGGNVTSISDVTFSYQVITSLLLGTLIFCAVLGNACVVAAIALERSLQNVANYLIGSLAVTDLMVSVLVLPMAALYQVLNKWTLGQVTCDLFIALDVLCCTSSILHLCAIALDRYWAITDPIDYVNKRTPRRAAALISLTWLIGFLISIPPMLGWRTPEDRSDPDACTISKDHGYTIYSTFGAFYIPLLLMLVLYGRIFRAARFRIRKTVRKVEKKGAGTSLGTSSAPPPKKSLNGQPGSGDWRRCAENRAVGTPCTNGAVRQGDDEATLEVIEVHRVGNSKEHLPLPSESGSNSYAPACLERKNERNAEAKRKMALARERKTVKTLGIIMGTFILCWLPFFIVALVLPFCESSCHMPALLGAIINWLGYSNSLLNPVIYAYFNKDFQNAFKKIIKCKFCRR
Counter-ions that a name gives are not always drawn.
Measured IC50, listed per entry for reference.
endpoint-label: IC50 (µM)

CC(C)Oc1ccccc1C1CCN(CCCCCCN2CCN(C3CCCCC3)C2=O)CC1.O=C(O)C(=O)O [Compound 6e, oxalate] = 0.02
CC(C)Oc1ccccc1C1=CCN(CCCCn2ccn(C3CCCCC3)c2=O)CC1 = 0.026
O=C1N(CCCCN2CCN(c3ccccc3OS(=O)(=O)C(F)(F)F)CC2)CCN1C1CCCCC1 [Compound 7b, hydrochloride] = 0.042
O=C(O)C(=O)O.O=C1N(CCCCN2CCC(c3ccccc3OCC3CC3)CC2)CCN1C1CCCCC1 [Compound 6f, oxalate] = 0.026
CC(C)Oc1ccccc1C1CCN(CCCCN2CCN(C(C)C)C2=O)CC1.O=C(O)C(=O)O [Compound 6d, oxalate] = 0.005
CC(C)Oc1ccccc1C1CCN(CCCCN2CCN(C3CCCCC3)C2=O)CC1.O=C(O)C(=O)O [Compound 6b, oxalate] = 0.0054
CC(C)Oc1ccccc1N1CCN(CCCCN2CCN(c3ccc(F)cc3)C2=O)CC1 = 0.0022
CC(C)Oc1ccccc1C1CCN(CCCN2CCN(C3CCCCC3)C2=O)CC1.O=C(O)C(=O)O [Compound 6c, oxalate] = 0.035
